- assay-target: SULT2A1 (Homo sapiens, UniProt Q06520)
- Sequence (Q06520 1-285): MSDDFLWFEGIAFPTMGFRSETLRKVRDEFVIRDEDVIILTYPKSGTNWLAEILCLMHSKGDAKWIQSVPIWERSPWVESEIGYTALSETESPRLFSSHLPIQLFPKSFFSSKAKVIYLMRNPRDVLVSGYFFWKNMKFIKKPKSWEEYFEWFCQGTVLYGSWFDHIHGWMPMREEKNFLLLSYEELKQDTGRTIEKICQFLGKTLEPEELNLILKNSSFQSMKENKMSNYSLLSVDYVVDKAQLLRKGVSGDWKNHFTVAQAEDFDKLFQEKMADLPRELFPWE
- measurement-notes: Presteady state
property-name: Kd
# do not omit the unit; it follows the number

I'd like to know its Kd. The molecule in question is C[C@]12CC[C@H](O)CC1=CC[C@@H]1[C@@H]2CC[C@]2(C)C(=O)CC[C@@H]12 [DHEA, 5-dehydroepiandrosterone]
1100 nM

----------
- assay-target: SULT2A1 (Homo sapiens, UniProt Q06520)
- measurement-notes: Equilibrium ligand binding monitored by intrinsic enzyme fluorescence
- experimental-conditions: Kd, enzyme species DHEA·E·
property-name: Kd (nM)
One number for each entry, in nM.

I'd like to know its Kd. The molecule in question is Nc1ncnc2c1ncn2[C@@H]1O[C@H](COP(=O)(O)O)[C@@H](OP(=O)(O)O)[C@H]1O
210

----------
- assay-target: SULT2A1 (Homo sapiens, UniProt Q06520)
- Sequence (Q06520 1-285): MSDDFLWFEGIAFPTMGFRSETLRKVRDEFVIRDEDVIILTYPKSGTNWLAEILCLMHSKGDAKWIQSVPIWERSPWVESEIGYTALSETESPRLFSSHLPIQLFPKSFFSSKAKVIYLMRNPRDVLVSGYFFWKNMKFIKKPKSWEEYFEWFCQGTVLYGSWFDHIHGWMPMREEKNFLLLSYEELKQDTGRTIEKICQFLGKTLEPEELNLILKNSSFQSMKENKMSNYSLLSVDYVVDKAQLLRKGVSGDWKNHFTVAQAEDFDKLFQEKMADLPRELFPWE
- measurement-notes: Presteady state
- experimental-conditions: read-out: Kd (koff/kon); enzyme species E· (unliganded)
property-name: pKd
Give bare numbers, as −log10 of the molar value.

I'd like to know its pKd. The compound in question is Nc1ncnc2c1ncn2[C@@H]1O[C@H](COP(=O)(O)OS(=O)(=O)O)[C@@H](OP(=O)(O)O)[C@H]1O [PAPS, 3′-phosphoadenosine 5′-phosphosulfate]
6.57

----------
- assay-target: UniProt:Q06520
- Sequence (Q06520 1-285): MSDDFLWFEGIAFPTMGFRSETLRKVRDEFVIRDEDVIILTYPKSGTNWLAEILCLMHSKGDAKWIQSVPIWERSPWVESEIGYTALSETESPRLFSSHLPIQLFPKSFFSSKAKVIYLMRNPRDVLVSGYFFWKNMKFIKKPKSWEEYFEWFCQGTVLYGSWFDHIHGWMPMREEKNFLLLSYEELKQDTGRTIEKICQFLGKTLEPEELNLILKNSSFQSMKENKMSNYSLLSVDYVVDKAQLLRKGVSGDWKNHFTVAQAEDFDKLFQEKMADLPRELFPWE
- measurement-notes: Equilibrium ligand binding monitored by intrinsic enzyme fluorescence
- experimental-conditions: Kd, enzyme species PAP·E·; global fit of titrations at five PAP concentrations
property-name: pKd
Answers are plain numbers, as −log10 of the molar value.

I'd like to know its pKd. The compound in question is C[C@]12CC[C@H](O)CC1=CC[C@@H]1[C@@H]2CC[C@]2(C)C(=O)CC[C@@H]12 [DHEA, 5-dehydroepiandrosterone]
5.96
